Some binders, each annotated with its measured CD28 scFv signal.
biological target: T1, Anti-CD28 scFv (VH-linker 1-VL) (biotinylated (site not stated)); test: phage binding ELISA on captured biotinylated anti-CD28 scFv;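 also: crude clonal phage supernatants applied to the wells, bound phage read out with an HRP-conjugated anti-M13 antibody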
T1 construct: biotinylated and captured on neutravidin coated plates in the phage ELISA
T1 sequence (scFv, as listed by the source): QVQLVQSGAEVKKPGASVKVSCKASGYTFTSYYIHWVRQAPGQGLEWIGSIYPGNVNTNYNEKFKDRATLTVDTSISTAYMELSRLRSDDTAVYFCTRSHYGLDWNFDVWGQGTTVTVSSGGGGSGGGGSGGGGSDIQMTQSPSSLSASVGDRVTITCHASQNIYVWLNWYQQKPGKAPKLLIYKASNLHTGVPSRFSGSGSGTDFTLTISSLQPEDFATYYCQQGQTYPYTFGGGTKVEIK

{"binder": "MDWCPRFLWDYCFA [Phage-335]", "CD28 scFv signal": 2.03}
{"binder": "MDWCPRHLWLECFN [Phage-387]", "CD28 scFv signal": 0.066}
{"binder": "MNWCPMHLWAECFN [Phage-363]", "CD28 scFv signal": 1.39}
{"binder": "MHWCPRDLWHVCFN [Phage-327]", "CD28 scFv signal": 2.15}
{"binder": "MFWCPITLWNECFN [Phage-326]", "CD28 scFv signal": 2.15}
{"binder": "MDWCPMYMWHKCFH [Phage-415]", "CD28 scFv signal": 0.987}
{"binder": "MDYCPSYLWHECFA [Phage-380]", "CD28 scFv signal": 0.47}
{"binder": "MDWCPRHLWDECFN [Phage-341]", "CD28 scFv signal": 1.98}
